- Tested on: HL-60(TB) leukemia
- assayOverview: NCI tumour cell line growth inhibition, 48 h
quantityKind: TGI

The cases that follow already have their TGI on record.
Clc1ccc(C2=NOC(C3CCCCC3)C2)cc1 (stereo unspecified) | > 100 µM
O=C1C(c2ccccc2)=[N+]([O-])c2cc([N+](=O)[O-])c(/C(Cl)=C/c3ccccc3)cc21 | 18.4 µM
COC(=S)OC1CC(n2cnc3c(=O)[nH]cnc32)OC1CO[Si](C)(C)C(C)(C)C (stereo unspecified) | > 100 µM
Cn1nc(N)nc1N=S(C)(C)=N | > 100 µM
O=C1CCC(c2nc3cc(Cl)ccc3o2)C(=O)N1 (stereo unspecified) | > 100 µM

For this molecule ( COC1/C=C/C(C)C(OC)CC(O)/C=C/C(C)C(C(C)C(OC)C(C)CCC(=O)C(C)C(C/C=C/N(C)C=O)OC)OC(=O)/C=C/C=C(\C)CC(OC)CC2=CC(=O)O[C@@H](C(C)C(OC)C1)[C@H]2O (stereo partly specified) ), measured TGI is > 25 µM

For this molecule ( Nc1ccc2c(c1)Cc1ccccc1-2 ), measured TGI is > 100 µM

For this molecule ( Cc1nc2ccccc2c(=O)n1NC(=S)Nc1ccccc1 ), measured TGI is > 100 µM
